These data points were gathered from patent US10125098B2.

target: NaV1.5 (Homo sapiens, UniProt Q14524); construct: permanently transfected with an expression vector containing the full-length cDNA coding for the desired human sodium channel α-subunit; expressed in transfected cells; host or cells: HEK-293; experiment: Patch voltage clamp electrophysiology assay (EP), NaV1.5; format: cell-based; details: HEK-293 cells stably expressing NaV1.5 with β1 subunit; whole-cell patch clamp, membrane potential −60 mV (inactivated state); read-out: Nav1.5
Sequence (Q14524 whole entry): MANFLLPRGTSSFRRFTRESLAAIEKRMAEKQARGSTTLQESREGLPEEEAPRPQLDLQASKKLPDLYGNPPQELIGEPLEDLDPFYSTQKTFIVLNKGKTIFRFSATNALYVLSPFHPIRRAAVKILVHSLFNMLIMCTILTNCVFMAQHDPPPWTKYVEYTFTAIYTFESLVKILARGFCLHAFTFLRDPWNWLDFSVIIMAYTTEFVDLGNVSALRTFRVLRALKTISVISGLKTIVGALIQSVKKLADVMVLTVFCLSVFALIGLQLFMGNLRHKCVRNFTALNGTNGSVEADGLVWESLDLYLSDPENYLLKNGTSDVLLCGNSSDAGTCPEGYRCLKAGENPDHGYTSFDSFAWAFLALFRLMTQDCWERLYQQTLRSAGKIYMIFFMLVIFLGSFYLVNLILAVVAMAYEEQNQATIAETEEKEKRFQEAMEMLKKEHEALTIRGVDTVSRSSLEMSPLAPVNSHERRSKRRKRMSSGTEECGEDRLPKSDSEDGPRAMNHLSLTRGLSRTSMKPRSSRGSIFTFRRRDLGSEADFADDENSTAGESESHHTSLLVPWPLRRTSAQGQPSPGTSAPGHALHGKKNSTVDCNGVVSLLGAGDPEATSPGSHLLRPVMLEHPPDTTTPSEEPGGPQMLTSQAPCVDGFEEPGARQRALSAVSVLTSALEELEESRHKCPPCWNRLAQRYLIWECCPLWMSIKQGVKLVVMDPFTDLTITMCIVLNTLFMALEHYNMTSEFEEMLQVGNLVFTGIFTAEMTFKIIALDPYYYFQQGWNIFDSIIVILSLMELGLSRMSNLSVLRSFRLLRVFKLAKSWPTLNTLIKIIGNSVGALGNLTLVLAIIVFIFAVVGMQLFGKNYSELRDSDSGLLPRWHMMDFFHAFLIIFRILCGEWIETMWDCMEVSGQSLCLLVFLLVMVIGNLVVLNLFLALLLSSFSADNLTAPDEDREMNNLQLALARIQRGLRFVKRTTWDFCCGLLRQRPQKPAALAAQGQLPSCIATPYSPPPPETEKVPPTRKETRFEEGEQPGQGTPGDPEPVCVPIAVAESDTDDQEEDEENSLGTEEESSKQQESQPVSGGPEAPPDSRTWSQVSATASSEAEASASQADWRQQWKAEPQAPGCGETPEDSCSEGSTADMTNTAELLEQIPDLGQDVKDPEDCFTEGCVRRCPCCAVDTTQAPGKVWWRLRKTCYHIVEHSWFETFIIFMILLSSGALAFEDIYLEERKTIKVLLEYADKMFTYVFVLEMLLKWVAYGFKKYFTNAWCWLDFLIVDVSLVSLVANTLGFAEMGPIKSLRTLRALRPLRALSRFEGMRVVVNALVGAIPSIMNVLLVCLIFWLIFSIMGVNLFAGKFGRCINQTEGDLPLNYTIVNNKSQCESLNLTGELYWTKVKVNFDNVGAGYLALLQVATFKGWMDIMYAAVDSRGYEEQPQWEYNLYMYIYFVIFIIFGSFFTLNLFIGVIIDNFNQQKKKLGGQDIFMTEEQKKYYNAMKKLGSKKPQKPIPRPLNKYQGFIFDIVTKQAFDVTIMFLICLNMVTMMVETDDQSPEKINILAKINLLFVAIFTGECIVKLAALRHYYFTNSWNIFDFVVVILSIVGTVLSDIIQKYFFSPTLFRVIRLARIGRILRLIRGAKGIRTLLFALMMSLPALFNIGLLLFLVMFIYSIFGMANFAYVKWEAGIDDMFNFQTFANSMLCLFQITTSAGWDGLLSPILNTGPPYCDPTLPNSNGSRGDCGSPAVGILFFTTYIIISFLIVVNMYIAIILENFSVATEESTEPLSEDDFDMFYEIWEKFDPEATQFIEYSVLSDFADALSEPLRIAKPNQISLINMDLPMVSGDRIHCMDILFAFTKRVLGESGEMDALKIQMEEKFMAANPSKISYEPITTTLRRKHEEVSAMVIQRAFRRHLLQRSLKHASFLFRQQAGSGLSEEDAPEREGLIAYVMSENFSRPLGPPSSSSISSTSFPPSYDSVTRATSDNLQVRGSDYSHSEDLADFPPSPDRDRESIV
observation type: IC50 (µM)

compound	observation type	recorded result
COC[C@H](c1cc(Cl)cc(Cl)c1)N1CCC(COc2cc(F)c(C(=O)N3C[C@H](F)C[C@H]3C(=O)O)cc2C2CC2)CC1	IC50	14
O=C(O)[C@@H]1C[C@@H](F)CN1C(=O)c1cc(C2CC2)c(OCC2CCN(Cc3cc(F)c(Cl)cc3Cl)CC2)cc1F	IC50	9.6
CC(c1cc(Cl)cc(Cl)c1)N1CCC(COc2cc(F)c(C(=O)N3C[C@H](F)C[C@H]3C(=O)O)cc2C2CC2)CC1 (stereo partly drawn)	IC50	23
C[C@@H]1[C@@H](C(=O)O)N(C(=O)c2cc(C3CC3)c(OCC3(F)CCN(Cc4cc(C(F)(F)F)ccc4Cl)CC3)cc2F)C[C@@H]1F	IC50	14
O=C(N[C@H](C(=O)O)C1CCC1)c1cc(C2CC2)c(OCC23CC4CC(CC(C4)C2)C3)cc1F	IC50	3.7
O=C(O)[C@@H]1CCCN1C(=O)c1cc(C2CC2)c(COc2cnc(OCC(F)(F)C(F)F)c(C3CC3)c2)cc1F	IC50	23

###

target: hNav1.7 (Homo sapiens, UniProt Q15858); construct: expressed in transfected cells; assay: Tritiated compound binding (LBA) to membranes from cells expressing hNav1.7 and the β1 subunit, competitive binding; details: competitive binding vs 100 pM [3H]compound, 18 h, room temperature, membranes with hNav1.7 and β1 subunit
Sequence (Q15858 1-1977 isoform Q15858-3): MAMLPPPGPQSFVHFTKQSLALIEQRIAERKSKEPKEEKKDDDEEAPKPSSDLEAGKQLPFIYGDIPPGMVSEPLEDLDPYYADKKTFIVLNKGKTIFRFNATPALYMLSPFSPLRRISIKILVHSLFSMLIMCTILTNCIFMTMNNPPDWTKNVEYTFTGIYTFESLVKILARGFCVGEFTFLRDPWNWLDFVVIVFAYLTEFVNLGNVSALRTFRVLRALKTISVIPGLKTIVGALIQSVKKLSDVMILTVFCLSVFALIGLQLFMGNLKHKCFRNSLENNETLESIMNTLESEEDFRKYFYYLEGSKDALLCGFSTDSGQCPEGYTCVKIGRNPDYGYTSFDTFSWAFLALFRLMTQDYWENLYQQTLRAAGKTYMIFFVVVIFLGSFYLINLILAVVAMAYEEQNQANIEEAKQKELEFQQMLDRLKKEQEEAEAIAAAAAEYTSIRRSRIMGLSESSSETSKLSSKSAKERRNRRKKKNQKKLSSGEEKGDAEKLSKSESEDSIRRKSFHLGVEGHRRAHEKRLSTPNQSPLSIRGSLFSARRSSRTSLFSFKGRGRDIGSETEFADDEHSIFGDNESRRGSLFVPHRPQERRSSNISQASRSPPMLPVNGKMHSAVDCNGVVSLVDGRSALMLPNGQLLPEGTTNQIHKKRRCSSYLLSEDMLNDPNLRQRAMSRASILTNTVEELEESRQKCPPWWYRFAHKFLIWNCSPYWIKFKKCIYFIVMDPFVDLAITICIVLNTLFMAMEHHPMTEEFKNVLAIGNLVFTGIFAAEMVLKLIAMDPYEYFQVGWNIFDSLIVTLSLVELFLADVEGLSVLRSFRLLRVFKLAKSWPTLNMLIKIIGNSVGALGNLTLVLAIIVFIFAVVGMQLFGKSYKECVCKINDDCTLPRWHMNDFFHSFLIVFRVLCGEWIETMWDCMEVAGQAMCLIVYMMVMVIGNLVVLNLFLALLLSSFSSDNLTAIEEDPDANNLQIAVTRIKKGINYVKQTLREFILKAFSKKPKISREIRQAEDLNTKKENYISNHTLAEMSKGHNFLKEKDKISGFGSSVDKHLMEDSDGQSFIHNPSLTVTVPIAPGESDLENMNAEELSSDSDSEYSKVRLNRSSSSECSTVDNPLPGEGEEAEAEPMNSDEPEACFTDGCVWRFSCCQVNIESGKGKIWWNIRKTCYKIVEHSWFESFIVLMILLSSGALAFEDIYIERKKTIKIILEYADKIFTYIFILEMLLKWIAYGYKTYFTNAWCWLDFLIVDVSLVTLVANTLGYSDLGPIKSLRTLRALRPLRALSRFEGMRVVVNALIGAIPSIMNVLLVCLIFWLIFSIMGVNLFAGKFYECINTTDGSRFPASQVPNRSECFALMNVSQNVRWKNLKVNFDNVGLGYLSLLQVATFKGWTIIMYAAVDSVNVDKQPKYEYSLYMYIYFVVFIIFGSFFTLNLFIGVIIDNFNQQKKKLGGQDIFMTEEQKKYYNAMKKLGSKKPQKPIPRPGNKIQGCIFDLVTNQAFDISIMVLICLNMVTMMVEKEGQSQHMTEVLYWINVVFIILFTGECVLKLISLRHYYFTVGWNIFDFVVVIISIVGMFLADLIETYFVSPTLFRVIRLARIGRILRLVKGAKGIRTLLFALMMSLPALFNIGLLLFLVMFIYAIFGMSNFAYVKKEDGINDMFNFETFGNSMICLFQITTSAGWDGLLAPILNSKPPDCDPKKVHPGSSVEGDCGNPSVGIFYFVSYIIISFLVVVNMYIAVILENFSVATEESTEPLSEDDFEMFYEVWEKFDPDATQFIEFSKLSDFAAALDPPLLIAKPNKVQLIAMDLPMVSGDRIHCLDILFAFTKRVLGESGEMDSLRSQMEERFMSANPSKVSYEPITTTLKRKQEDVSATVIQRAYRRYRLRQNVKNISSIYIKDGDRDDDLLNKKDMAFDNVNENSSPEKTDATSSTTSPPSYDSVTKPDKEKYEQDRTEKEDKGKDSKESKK
Sequence (Q07699 19-218 partner): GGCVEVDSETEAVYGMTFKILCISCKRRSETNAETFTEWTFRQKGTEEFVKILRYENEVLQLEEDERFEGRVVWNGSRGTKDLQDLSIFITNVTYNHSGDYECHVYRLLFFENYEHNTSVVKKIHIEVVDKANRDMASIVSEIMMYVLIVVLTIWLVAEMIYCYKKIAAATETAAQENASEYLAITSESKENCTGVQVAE
pIC50: −log10 of the molar value.
observation type: pIC50

molecule	assayed target	censoring sign	recorded result
O=C(O)[C@@H]1CCCN1C(=O)c1cc(C2CC2)c(OCC23CC4CC(CC(C4)C2)C3)cc1F	hNav1.7 (Homo sapiens, UniProt Q15858)	=	7.71
CC[C@H]1CCN(C(=O)c2cc(C3CC3)c(OCC34CC5CC(CC(C5)C3)C4)cc2F)[C@@H]1C(=O)O [Example 168a]	hNav1.7 (Homo sapiens, UniProt Q15858)	=	6.21
O=C(O)[C@@H]1C[C@@H](F)CN1C(=O)c1cc(C2CC2)c(OCC2(F)CCN(Cc3ccc(C(F)(F)F)cc3Cl)CC2)cc1F	hNav1.7 (Homo sapiens, UniProt Q15858)	=	6.92
O=C(O)[C@@H]1C[C@@H](F)CN1C(=O)c1cc(C2CC2)c(OCC2CCN(Cc3c(Cl)cccc3Cl)CC2)cc1F	hNav1.7 (Homo sapiens, UniProt Q15858)	=	7.89
O=C(NC1(C(=O)O)CC1)c1cc(Cl)c(Oc2ccc(OC(F)(F)F)c(Cl)c2)cc1F	hNav1.7 (Homo sapiens, UniProt Q15858)	<	5.00
O=C(O)[C@@H]1CCN1C(=O)c1cc(C2CC2)c(OCC23CC4CC(CC(C4)C2)C3)cc1F	hNav1.7 (Homo sapiens, UniProt Q15858)	=	5.80
C[C@H](NC(=O)c1cc(C2CC2)c(OCC23CC4CC(CC(C4)C2)C3)cc1F)C(=O)O	hNav1.7 (Homo sapiens, UniProt Q15858)	=	6.70

###

Items are presented alongside their recorded IC50.
target: NaV1.5 (Homo sapiens, UniProt Q14524); construct: permanently transfected with an expression vector containing the full-length cDNA coding for the desired human sodium channel α-subunit; expressed in transfected cells; host or cells: HEK-293; assay: Patch voltage clamp electrophysiology assay (EP), NaV1.5; type: cell-based; conditions: HEK-293 cells stably expressing NaV1.5 with β1 subunit; whole-cell patch clamp, membrane potential −60 mV (inactivated state); read-out: Nav1.5

compound	assayed target	u	IC50
C[C@@]1(COc2cc(F)c(C(=O)N3CCC[C@H]3C(=O)O)cc2C2CC2)CCN(Cc2cc(F)cc(Cl)c2)C1 (single isomer, unassigned) [Example 137a]	NaV1.5 (Homo sapiens, UniProt Q14524)	µM	15
O=C(O)[C@@H]1[C@H]2CC[C@H](C2)N1C(=O)c1cc(C2CC2)c(OCC23CC4CC(CC(C4)C2)C3)cc1F	NaV1.5 (Homo sapiens, UniProt Q14524)	µM	8.4
O=C(N[C@H](C(=O)O)C1CC1)c1cc(C2CC2)c(OCC2CCN(C(c3cc(Cl)cc(Cl)c3)C(F)(F)F)CC2)cc1F (stereo partly drawn)	NaV1.5 (Homo sapiens, UniProt Q14524)	µM	14

###

molecular target: hNav1.7 (Homo sapiens); experiment: Tritiated compound binding (LBA) to membranes from cells expressing hNav1.7 and the β1 subunit, competitive binding; conditions: competitive binding vs 100 pM [3H]compound, 18 h, room temperature, membranes with hNav1.7 and β1 subunit
Rule: IC50 below 100 nM gives Y. Equal to or above 100 nM gives N.

compound	assayed target	label class
CCc1cc(C(=O)N2CCC[C@H]2C(=O)O)c(F)cc1OCC12CC3CC(CC(C3)C1)C2 [Example 89]	hNav1.7 (Homo sapiens)	N
CC(C)(C)OC(=O)N1CC(n2nccc2-c2cc(Cl)ccc2Oc2cc(F)c(C(=O)N3CCC[C@H]3C(=O)O)cc2F)C1 [Example 33]	hNav1.7 (Homo sapiens)	N
O=C(N[C@H](C(=O)O)C1CC1)c1cc(C2CC2)c(OCC2CCN([C@H](c3ccccc3)c3cc(Cl)cc(Cl)c3)CC2)cc1F (single isomer, unassigned) [Example 118]	hNav1.7 (Homo sapiens)	Y
O=C(O)[C@@H]1C[C@@H](F)CN1C(=O)c1c(F)cc(OCC23CC4CC(CC(C4)C2)C3)cc1C1CC1 [Example 204]	hNav1.7 (Homo sapiens)	N
C[C@@H](c1cc(Cl)cc(Cl)c1)N1CCC(COc2cc(F)c(C(=O)N3[C@@H]4C[C@@H]4C[C@H]3C(=O)O)cc2C2CC2)CC1 [Example 156]	hNav1.7 (Homo sapiens)	N

###

Let's look at some compounds and their measured pIC50.
biological target: NaV1.5 (Homo sapiens, UniProt Q14524); construct: permanently transfected with an expression vector containing the full-length cDNA coding for the desired human sodium channel α-subunit; expressed in transfected cells; host or cells: HEK-293; assay: Patch voltage clamp electrophysiology assay (EP), NaV1.5; format: cell-based; details: HEK-293 cells stably expressing NaV1.5 with β1 subunit; whole-cell patch clamp, membrane potential −60 mV (inactivated state); read-out: Nav1.5
pIC50: −log10 of the molar value.

compound	assayed target	pIC50
COC[C@@H](c1cc(Cl)cc(Cl)c1)N1CCC(COc2cc(F)c(C(=O)N3C[C@H](F)C[C@H]3C(=O)O)cc2C2CC2)CC1	NaV1.5 (Homo sapiens, UniProt Q14524)	4.74
O=C(c1cc(C2CC2)c(OCC23CC4CC(CC(C4)C2)C3)cc1F)N1CCC[C@H]1c1nnn[nH]1	NaV1.5 (Homo sapiens, UniProt Q14524)	5.01
O=C(O)[C@@H]1C[C@@H](F)CN1C(=O)c1c(F)cc(OCC23CC4CC(CC(C4)C2)C3)cc1C1CC1	NaV1.5 (Homo sapiens, UniProt Q14524)	4.64
C[C@H]1[C@H](F)CN(C(=O)c2cc(C3CC3)c(OCC34CC5CC(CC(C5)C3)C4)cc2F)[C@@H]1C(=O)O [Example 210b]	NaV1.5 (Homo sapiens, UniProt Q14524)	4.77
O=C(O)[C@@H]1C[C@H]2C[C@H]2N1C(=O)c1cc(C2CC2)c(OCC23CC4CC(CC(C4)C2)C3)cc1F	NaV1.5 (Homo sapiens, UniProt Q14524)	4.89
O=C(NC(C(=O)O)C(F)(F)F)c1cc(C2CC2)c(OCC23CC4CC(CC(C4)C2)C3)cc1F (stereo not shown)	NaV1.5 (Homo sapiens, UniProt Q14524)	5.41
O=C(O)[C@@H]1CCCN1C(=O)c1cc(C2CC2)c(OCC2CCN([C@@H](c3cc(Cl)cc(Cl)c3)C(F)(F)F)CC2)cc1F (single isomer, unassigned) [Example 123b]	NaV1.5 (Homo sapiens, UniProt Q14524)	5.11
O=C(N[C@H](C(=O)O)C1CC1)c1cc(C2CC2)c(OCC2CCN([C@H](c3ccccc3)c3cc(Cl)cc(Cl)c3)CC2)cc1F (single isomer, unassigned)	NaV1.5 (Homo sapiens, UniProt Q14524)	4.82
CC1(C)CCN(C(=O)c2cc(C3CC3)c(OCC34CC5CC(CC(C5)C3)C4)cc2F)C1C(=O)O (stereo in doubt)	NaV1.5 (Homo sapiens, UniProt Q14524)	5.28
C[C@H]1CCN(C(=O)c2cc(C3CC3)c(OCC3CCN([C@@H](c4cc(Cl)cc(Cl)c4)C(F)(F)F)CC3)cc2F)[C@@H]1C(=O)O (single isomer, unassigned) [Example 121b]	NaV1.5 (Homo sapiens, UniProt Q14524)	4.77
O=C(O)[C@@H]1CCCN1C(=O)c1cc(C2CC2)c(OCC2CCN([C@H](c3cc(Cl)cc(Cl)c3)C(F)(F)F)CC2)cc1F (single isomer, unassigned) [Example 123a]	NaV1.5 (Homo sapiens, UniProt Q14524)	5.15
O=C(O)[C@@H]1CCCCN1C(=O)c1cc(C2CC2)c(OCC23CC4CC(CC(C4)C2)C3)cc1F	NaV1.5 (Homo sapiens, UniProt Q14524)	4.85
NC(=O)[C@@H]1CCCN1C(=O)c1cc(C2CC2)c(COc2cc(Cl)cc(OC(F)(F)F)c2)cc1F	NaV1.5 (Homo sapiens, UniProt Q14524)	4.80
O=C(NC1(C(=O)O)CC1)c1cc(C2CC2)c(OCC23CC4CC(CC(C4)C2)C3)cc1F	NaV1.5 (Homo sapiens, UniProt Q14524)	5.67
O=C(NC1(C(=O)O)COC1)c1cc(C2CC2)c(OCC23CC4CC(CC(C4)C2)C3)cc1F	NaV1.5 (Homo sapiens, UniProt Q14524)	4.92
O=C(O)[C@@H]1C[C@@H](F)CN1C(=O)c1cc(C2CC2)c(OCC2CCN([C@H](c3cc(Cl)cc(Cl)c3)C(F)(F)F)CC2)cc1F (single isomer, unassigned) [Example 140a]	NaV1.5 (Homo sapiens, UniProt Q14524)	5.57
O=C(O)[C@@H]1C[C@@H](F)CN1C(=O)c1cc(C2CC2)c(OCC2(F)CCN(Cc3cc(C(F)(F)F)ccc3Cl)CC2)cc1F	NaV1.5 (Homo sapiens, UniProt Q14524)	4.68
O=C(N[C@H](C(=O)O)C1CC1)c1cc(C2CC2)c(OCC23CC4CC(CC(C4)C2)C3)cc1F	NaV1.5 (Homo sapiens, UniProt Q14524)	5.12
CC1(COc2cc(F)c(C(=O)N3CCC[C@H]3C(=O)O)cc2C2CC2)CCC2(CC1)CC2(F)F (stereo partly shown)	NaV1.5 (Homo sapiens, UniProt Q14524)	4.54
CC1(COc2cc(F)c(C(=O)N[C@H](C(=O)O)C3CC3)cc2C2CC2)CN([C@H](c2ccccc2)c2cc(Cl)cc(Cl)c2)C1 (single isomer, unassigned)	NaV1.5 (Homo sapiens, UniProt Q14524)	4.82
CC1[C@@H](C(=O)O)N(C(=O)c2cc(C3CC3)c(OCC3(F)CCN([C@@H](C)c4cc(Cl)cc(Cl)c4)CC3)cc2F)C[C@@H]1F (stereo partly shown)	NaV1.5 (Homo sapiens, UniProt Q14524)	4.70
CC[C@@H](C)[C@H](NC(=O)c1cc(Cl)c(Oc2cnc(OCC(C)C)c(Cl)c2)cc1F)C(=O)O	NaV1.5 (Homo sapiens, UniProt Q14524)	4.92
C[C@H](NC(=O)c1cc(C2CC2)c(OCC23CC4CC(CC(C4)C2)C3)cc1F)C(=O)O	NaV1.5 (Homo sapiens, UniProt Q14524)	5.66
C[C@H]1OCN(C(=O)c2cc(C3CC3)c(OCC3CCN(Cc4c(Cl)cccc4Cl)CC3)cc2F)[C@@H]1C(=O)O	NaV1.5 (Homo sapiens, UniProt Q14524)	4.66
O=C(N[C@H](C(=O)O)C1CC1)c1cc(C2CC2)c(OCC2CCN([C@@H](c3ccccc3)c3cc(Cl)cc(Cl)c3)CC2)cc1F (single isomer, unassigned)	NaV1.5 (Homo sapiens, UniProt Q14524)	5.03
